# System: P388 leukemia ip, CD2F1 mice, survival T/C
# assay-protocol: NCI In Vivo Anticancer Drug Screen. Data for tumor model P388 Leukemia (intraperitoneal) in CD2F1 (CDF1) mice
# test-context: endpoint: median survival time; dose: 150.0 mg/kg/injection; schedule: Q01DX001 (ip); vehicle: saline with Tween-80; higher = longer survival
Toxic doses and inconclusive results are not listed.

{"compound": "BrC1(Br)C2CC3C(CC21)C3(Br)Br (centres undefined)", "target-or-system": "P388 leukemia ip, CD2F1 mice, survival T/C", "T/C": "100 % of control"}
{"compound": "CCOC(=O)C1=CC(Oc2cc(NS(=O)(=O)c3ccccc3)ccc2O)C(C(=O)OCC)=CC1Oc1cc(NS(=O)(=O)c2ccccc2)ccc1O (centres undefined)", "target-or-system": "P388 leukemia ip, CD2F1 mice, survival T/C", "T/C": "100 % of control"}
{"compound": "Nc1ccc(OCCNS(=O)(=O)c2cccc(S(=O)(=O)F)c2)c(Cl)c1", "target-or-system": "P388 leukemia ip, CD2F1 mice, survival T/C", "T/C": "90 % of control"}
{"compound": "CN1C(=O)CN=C(c2ccccn2)c2cc(Cl)ccc21", "target-or-system": "P388 leukemia ip, CD2F1 mice, survival T/C", "T/C": "104 % of control"}
